Assay: Selectivity index, ratio of IC50 for rat L6 cells to IC50 for Trypanosoma brucei rhodesiense STIB 900
Assay type: toxicity, cell-based
Conditions: read-out: Ratio IC50

>  <smiles.repr>
C=C1C(=O)O[C@@H]2[C@H]3C(=C)[C@@H](OCOC)C[C@H]3C(=C)C[C@H](O)[C@@H]12

>  <selectivity ratio>
0.4

$$$$
>  <smiles.repr>
C=C1C(=O)O[C@@H]2[C@H]3C(=C)[C@@H](O)C[C@H]3C(=C)C[C@H](O)[C@@H]12

>  <selectivity ratio>
1

$$$$
>  <smiles.repr>
C=C(COC(C)=O)C(=O)O[C@H]1CC(=C)[C@@H]2C[C@H](OC(C)=O)C(=C)[C@@H]2[C@H]2OC(=O)C(=C)[C@@H]21

>  <selectivity ratio>
2.3

$$$$
>  <smiles.repr>
C=C(C)C(=O)O[C@H]1CC(=C)[C@@H]2C[C@H](OCOC)C(=C)[C@@H]2[C@H]2OC(=O)C(=C)[C@@H]21

>  <selectivity ratio>
0.9

$$$$
>  <smiles.repr>
C=C(C)C(=O)O[C@H]1CC(=C)[C@@H]2C[C@H](O)C(=C)[C@@H]2[C@H]2OC(=O)C(=C)[C@@H]21

>  <selectivity ratio>
1.9

$$$$
>  <smiles.repr>
C=C(CO)C(=O)O[C@H]1CC(=C)[C@@H]2C[C@H](O)C(=C)[C@@H]2[C@H]2OC(=O)C(=C)[C@@H]21

>  <selectivity ratio>
7.8

$$$$
>  <smiles.repr>
C=C(COCOC)C(=O)O[C@H]1CC(=C)[C@@H]2C[C@H](OCOC)C(=C)[C@@H]2[C@H]2OC(=O)C(=C)[C@@H]21

>  <selectivity ratio>
0.4

$$$$
>  <smiles.repr>
C=C(COC(C)=O)C(=O)O[C@H]1CC(=C)[C@@H]2C[C@H](O)C(=C)[C@@H]2[C@H]2OC(=O)C(=C)[C@@H]21

>  <selectivity ratio>
3.4

$$$$
